Hi there, I'd appreciate the recorded scaled log2 fold change for every entry that follows.
B1: library; numbered along this chain (parent)
chain: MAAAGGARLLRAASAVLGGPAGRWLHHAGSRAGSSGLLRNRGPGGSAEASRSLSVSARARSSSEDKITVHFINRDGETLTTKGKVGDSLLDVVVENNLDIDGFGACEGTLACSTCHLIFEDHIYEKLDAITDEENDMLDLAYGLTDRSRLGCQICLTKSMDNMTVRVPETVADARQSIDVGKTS

Variants of: B1
ASSAY METHOD TEXT: scaled log2 fold change in cell abundance, elesclomol vs control (0 = silent mean, 1 = nonsense mean) (scaled log2 ratio); higher = higher viability under elesclomol (loss of FDX1 cuproptosis function);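 note: variant abundance is its share of total variant reads in each endpoint sample, from next-generation sequencing of the integrated ORF PCR-amplified out of genomic DNA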
RECORDED CONDITIONS: with HEK293T FDX1 KO; elesclomol 40 nM; glucose 10 mM; 11 days
One number for each entry.

For the 7 variants below, give their scaled log2 fold change values.
1. R149D
2. D146T
3. D87M
4. S46D
5. G42R
6. L10S
7. H26A

Result string:
0.943
-0.841
-0.441
0.458
-0.362
1.51
1.75
